Kindly supply the reported b -sheet / % values for the records listed here.
Assay: β-sheet content by ATR-FT-IR
Format: physicochemical
Settings: Fig. S7 panel A; β-sheet content by ATR-FT-IR
Output spec: scalar in %, unitless text.

Q: Complete the entry with b -sheet / % for RGDSGGGGGGKIKIQIC
Result: 40.62

Q: Complete the entry with b -sheet / % for KLKQLL
Result: 31.78

Q: Complete the entry with b -sheet / % for KAKAQA
Result: 40.34

Q: Complete the entry with b -sheet / % for CKIKQIINMWQ
Result: 51

Q: Complete the entry with b -sheet / % for KNDKND
Result: 43.2531

Q: Complete the entry with b -sheet / % for KIKQIINM
Result: 44

Q: Complete the entry with b -sheet / % for HHHHKAKAKAKAWWWW
Result: 40.26

Q: Complete the entry with b -sheet / % for QCKIKQII
Result: 40.51

Q: Complete the entry with b -sheet / % for QCKFKFQFNM
Result: 37.29

Q: Complete the entry with b -sheet / % for RGEKIKIQINM
Result: 38.16

Q: Complete the entry with b -sheet / % for QCKIKQIINMWQ [reference compound]
Result: 51.73

Q: Complete the entry with b -sheet / % for NMWQKIKIQI
Result: 39.24

Q: Complete the entry with b -sheet / % for CKFKQFFNMWQ
Result: 59.11

Q: Complete the entry with b -sheet / % for KFKFQF
Result: 46

Q: Complete the entry with b -sheet / % for KIRGKFEKED
Result: 28.67

Q: Complete the entry with b -sheet / % for KIKIKIKIWWWW
Result: 37.79

Q: Complete the entry with b -sheet / % for KFKQFFINMWQ
Result: 38.37

Q: Complete the entry with b -sheet / % for NMWQKIKQII
Result: 38.14

Q: Complete the entry with b -sheet / % for HHHHKIKIKIKIYYYY
Result: 53.27

Q: Complete the entry with b -sheet / % for RPRGLLLGNLR
Result: 13.82

Q: Complete the entry with b -sheet / % for KIKIQIAMWQ
Result: 37.48

Q: Complete the entry with b -sheet / % for KIKIQIMQWN
Result: 40.38

Q: Complete the entry with b -sheet / % for MDQMDQMDQMDQMDQ
Result: 46.09

Q: Complete the entry with b -sheet / % for CRFRFQF
Result: 39.77

Q: Complete the entry with b -sheet / % for CKIKQIINM
Result: 46

----------
Assay type: physicochemical
Set-up: key: 1 = fibrils present; 0 non-fibrillar structures
Conditions: TEM; 1 = fibrils present, 0 = non-fibrillar
readout: Fibril
// keep it numeric: no unit symbol after the value

Q: Complete the entry with Fibril for KIKIKIKI
Result: 0

Q: Complete the entry with Fibril for KIKQIIN
Result: 0

Q: Complete the entry with Fibril for CKWKWQW
Result: 1

Q: Complete the entry with Fibril for KIKIQIRGD
Result: 1

Q: Complete the entry with Fibril for KIKQIINMWQ
Result: 1

Q: Complete the entry with Fibril for KIKIQIC
Result: 1

Q: Complete the entry with Fibril for KIEIQINM
Result: 1

Q: Complete the entry with Fibril for CKAKAQA
Result: 0

Q: Complete the entry with Fibril for RGDKIKIQINM
Result: 1

Q: Complete the entry with Fibril for CSISIQI
Result: 1

Q: Complete the entry with Fibril for TKTLTKTL
Result: 0

Q: Complete the entry with Fibril for KIKIKIQI
Result: 1

Q: Complete the entry with Fibril for ILKNLSRSRKIKIQINMWQ
Result: 1

Q: Complete the entry with Fibril for KFKFQF
Result: 0

Q: Complete the entry with Fibril for CKIKIQIII
Result: 1

Q: Complete the entry with Fibril for CEFEFQF
Result: 1

Q: Complete the entry with Fibril for RGDKIRGDKI
Result: 0

Q: Complete the entry with Fibril for RGDCKIKIQINM
Result: 1

Q: Complete the entry with Fibril for CKIKIQIRGD
Result: 1

Q: Complete the entry with Fibril for CKIKQIIRGD
Result: 0

Q: Complete the entry with Fibril for NMWQKVGTPL
Result: 0

Q: Complete the entry with Fibril for KFKFQFN
Result: 1

Q: Complete the entry with Fibril for KFKFQFNMW
Result: 1

Q: Complete the entry with Fibril for MKIKIQINM
Result: 1

Q: Complete the entry with Fibril for CKFKQFFNM
Result: 1

Q: Complete the entry with Fibril for KIKIQIMQWN
Result: 1

Q: Complete the entry with Fibril for CKIKIQINM
Result: 1

Q: Complete the entry with Fibril for KLKLQLL
Result: 1

----------
Assay type: physicochemical
Details: ThT-active if fluorescence at least twice the control
Kindly supply the reported ThT Cat. / ThT-Fluorescence (categorical) values for the records listed here.

Q: Complete the entry with ThT Cat. / ThT-Fluorescence (categorical) for MKIKIQINMWQ
Result: 1 (ThT. Cat is 1, if Rel. ThT >2)

Q: Complete the entry with ThT Cat. / ThT-Fluorescence (categorical) for RATVYV [reference compound]
Result: 0 (ThT-inactive (N-Fold <2))

Q: Complete the entry with ThT Cat. / ThT-Fluorescence (categorical) for KAQCTLP
Result: 0 (ThT-inactive (N-Fold <2))

Q: Complete the entry with ThT Cat. / ThT-Fluorescence (categorical) for RGDSGGGGGGKIKIQIC
Result: 1 (ThT. Cat is 1, if Rel. ThT >2)

Q: Complete the entry with ThT Cat. / ThT-Fluorescence (categorical) for KFKFQFNMWQ
Result: 1 (ThT. Cat is 1, if Rel. ThT >2)

Q: Complete the entry with ThT Cat. / ThT-Fluorescence (categorical) for KIKIKIQI
Result: 1 (ThT. Cat is 1, if Rel. ThT >2)

Q: Complete the entry with ThT Cat. / ThT-Fluorescence (categorical) for RGDKIKIQI
Result: 1 (ThT. Cat is 1, if Rel. ThT >2)

Q: Complete the entry with ThT Cat. / ThT-Fluorescence (categorical) for CEIEIQI
Result: 1 (ThT. Cat is 1, if Rel. ThT >2)

Q: Complete the entry with ThT Cat. / ThT-Fluorescence (categorical) for KVKVQVV
Result: 0 (ThT-inactive (N-Fold <2))

Q: Complete the entry with ThT Cat. / ThT-Fluorescence (categorical) for KAKAQANM
Result: 0 (ThT-inactive (N-Fold <2))

Q: Complete the entry with ThT Cat. / ThT-Fluorescence (categorical) for QCKAKAQANM
Result: 0 (ThT-inactive (N-Fold <2))

Q: Complete the entry with ThT Cat. / ThT-Fluorescence (categorical) for SISISRRI
Result: 0 (ThT-inactive (N-Fold <2))

Q: Complete the entry with ThT Cat. / ThT-Fluorescence (categorical) for CKIKQII
Result: 1 (ThT. Cat is 1, if Rel. ThT >2)

Q: Complete the entry with ThT Cat. / ThT-Fluorescence (categorical) for QCKAKAQANMWQ
Result: 0 (ThT-inactive (N-Fold <2))

Q: Complete the entry with ThT Cat. / ThT-Fluorescence (categorical) for CKIKIQIII
Result: 1 (ThT. Cat is 1, if Rel. ThT >2)

Q: Complete the entry with ThT Cat. / ThT-Fluorescence (categorical) for RVHLGLG
Result: 0 (ThT-inactive (N-Fold <2))

Q: Complete the entry with ThT Cat. / ThT-Fluorescence (categorical) for KIKIQIMWNQ
Result: 0 (ThT-inactive (N-Fold <2))

Q: Complete the entry with ThT Cat. / ThT-Fluorescence (categorical) for KWKWQW
Result: 0 (ThT-inactive (N-Fold <2))

Q: Complete the entry with ThT Cat. / ThT-Fluorescence (categorical) for CKFKQFFNMWQ
Result: 1 (ThT. Cat is 1, if Rel. ThT >2)

Q: Complete the entry with ThT Cat. / ThT-Fluorescence (categorical) for CEIEIQINM
Result: 1 (ThT. Cat is 1, if Rel. ThT >2)

Q: Complete the entry with ThT Cat. / ThT-Fluorescence (categorical) for MKIKIQINM
Result: 0 (ThT-inactive (N-Fold <2))

Q: Complete the entry with ThT Cat. / ThT-Fluorescence (categorical) for EFEFQF
Result: 1 (ThT. Cat is 1, if Rel. ThT >2)

Q: Complete the entry with ThT Cat. / ThT-Fluorescence (categorical) for KFKFQFW
Result: 1 (ThT. Cat is 1, if Rel. ThT >2)

Q: Complete the entry with ThT Cat. / ThT-Fluorescence (categorical) for RGDCKFKFQF
Result: 1 (ThT. Cat is 1, if Rel. ThT >2)

Q: Complete the entry with ThT Cat. / ThT-Fluorescence (categorical) for KIKIQIII
Result: 1 (ThT. Cat is 1, if Rel. ThT >2)

Q: Complete the entry with ThT Cat. / ThT-Fluorescence (categorical) for IIIQGK [reference compound]
Result: 0 (ThT-inactive (N-Fold <2))

Q: Complete the entry with ThT Cat. / ThT-Fluorescence (categorical) for CSISIQI
Result: 1 (ThT. Cat is 1, if Rel. ThT >2)

Q: Complete the entry with ThT Cat. / ThT-Fluorescence (categorical) for CEIEIQINMWQ
Result: 1 (ThT. Cat is 1, if Rel. ThT >2)

Q: Complete the entry with ThT Cat. / ThT-Fluorescence (categorical) for CKFKFQFNM
Result: 1 (ThT. Cat is 1, if Rel. ThT >2)

Q: Complete the entry with ThT Cat. / ThT-Fluorescence (categorical) for CKFKFQFW
Result: 0 (ThT-inactive (N-Fold <2))

Q: Complete the entry with ThT Cat. / ThT-Fluorescence (categorical) for KIKIQINMWWQ
Result: 0 (ThT-inactive (N-Fold <2))

Q: Complete the entry with ThT Cat. / ThT-Fluorescence (categorical) for CKFKFQF
Result: 1 (ThT. Cat is 1, if Rel. ThT >2)

Q: Complete the entry with ThT Cat. / ThT-Fluorescence (categorical) for HIHIQIC
Result: 1 (ThT. Cat is 1, if Rel. ThT >2)

Q: Complete the entry with ThT Cat. / ThT-Fluorescence (categorical) for KFKQFFNMWQ
Result: 0 (ThT-inactive (N-Fold <2))

Q: Complete the entry with ThT Cat. / ThT-Fluorescence (categorical) for KVKVQVVV
Result: 0 (ThT-inactive (N-Fold <2))

Q: Complete the entry with ThT Cat. / ThT-Fluorescence (categorical) for KLKLKLQL
Result: 0 (ThT-inactive (N-Fold <2))

Q: Complete the entry with ThT Cat. / ThT-Fluorescence (categorical) for EIEIEIEI
Result: 0 (ThT-inactive (N-Fold <2))

Q: Complete the entry with ThT Cat. / ThT-Fluorescence (categorical) for QCKFKFQFNMWQ
Result: 0 (ThT-inactive (N-Fold <2))

Q: Complete the entry with ThT Cat. / ThT-Fluorescence (categorical) for VLYVGSKT [reference compound]
Result: 0 (ThT-inactive (N-Fold <2))

Q: Complete the entry with ThT Cat. / ThT-Fluorescence (categorical) for CKIWIQIY
Result: 1 (ThT. Cat is 1, if Rel. ThT >2)

Q: Complete the entry with ThT Cat. / ThT-Fluorescence (categorical) for KAKLTCT
Result: 0 (ThT-inactive (N-Fold <2))

Q: Complete the entry with ThT Cat. / ThT-Fluorescence (categorical) for KYKGAIIGNIK
Result: 0 (ThT-inactive (N-Fold <2))

Q: Complete the entry with ThT Cat. / ThT-Fluorescence (categorical) for IIKIIK [reference compound]
Result: 0 (ThT-inactive (N-Fold <2))

Q: Complete the entry with ThT Cat. / ThT-Fluorescence (categorical) for KAKAKAQA
Result: 0 (ThT-inactive (N-Fold <2))

Q: Complete the entry with ThT Cat. / ThT-Fluorescence (categorical) for KFKFQF
Result: 0 (ThT-inactive (N-Fold <2))

Q: Complete the entry with ThT Cat. / ThT-Fluorescence (categorical) for HHHHKIKIKIKIYYYY
Result: 1 (ThT. Cat is 1, if Rel. ThT >2)

Q: Complete the entry with ThT Cat. / ThT-Fluorescence (categorical) for KIKIKIQINMWQ
Result: 0 (ThT-inactive (N-Fold <2))

Q: Complete the entry with ThT Cat. / ThT-Fluorescence (categorical) for RGDCKIKIQINM
Result: 0 (ThT-inactive (N-Fold <2))

Q: Complete the entry with ThT Cat. / ThT-Fluorescence (categorical) for CKIKIQINM
Result: 1 (ThT. Cat is 1, if Rel. ThT >2)

Q: Complete the entry with ThT Cat. / ThT-Fluorescence (categorical) for HGEHGE
Result: 0 (ThT-inactive (N-Fold <2))

Q: Complete the entry with ThT Cat. / ThT-Fluorescence (categorical) for HHHHKAKAKAKAWWWW
Result: 1 (ThT. Cat is 1, if Rel. ThT >2)

Q: Complete the entry with ThT Cat. / ThT-Fluorescence (categorical) for QCKIKIQINM
Result: 1 (ThT. Cat is 1, if Rel. ThT >2)

Q: Complete the entry with ThT Cat. / ThT-Fluorescence (categorical) for KIKIQIAMWQ
Result: 1 (ThT. Cat is 1, if Rel. ThT >2)

Q: Complete the entry with ThT Cat. / ThT-Fluorescence (categorical) for KIKIQINMWA
Result: 0 (ThT-inactive (N-Fold <2))

Q: Complete the entry with ThT Cat. / ThT-Fluorescence (categorical) for CRFRFQF
Result: 1 (ThT. Cat is 1, if Rel. ThT >2)

Q: Complete the entry with ThT Cat. / ThT-Fluorescence (categorical) for KLKQLL
Result: 0 (ThT-inactive (N-Fold <2))
